system: Staphylococcus aureus PB1801; construct: PB1801; assay: microbe, parasite or virus in culture; parameters: Broth microdilution MIC in cation-adjusted MHB-Ca2+, growth inhibition per EUCAST reading; conditions: PB1801, 16 h, replicate 2
Each entry below carries its reported MIC.
Numeric answer only, unit µg/mL assumed.

• CC(=O)NC[C@H]1CN(c2ccc(N3CCOCC3)c(F)c2)C(=O)O1 = 4
• CCO/N=C(\C(=O)N[C@@H]1C(=O)N2C(C(=O)[O-])=C(Sc3nc(-c4cc[n+](C)cc4)cs3)CS[C@H]12)c1nsc(N)n1 = 0.5
• CCCCCCCCCC(=O)N[C@@H](Cc1c[nH]c2ccccc12)C(=O)N[C@H](CC(N)=O)C(=O)N[C@@H](CC(=O)O)C(=O)N[C@@H]1C(=O)NCC(=O)N[C@@H](CCCN)C(=O)N[C@@H](CC(=O)O)C(=O)N[C@H](C)C(=O)N[C@@H](CC(=O)O)C(=O)NCC(=O)N[C@H](CO)C(=O)N[C@@H]([C@H](C)CC(=O)O)C(=O)N[C@@H](CC(=O)c2ccccc2N)C(=O)O[C@@H]1C = 2

Exercise: GET /values?readout=MIC&item= CN[C@H](CC(C)C)C(=O)N[C@H]1C(=O)N[C@@H](CC(N)=O)C(=O)N[C@H]2C(=O)N[C@H]3C(=O)N[C@H](C(=O)N[C@H](C(=O)O)c4cc(O)cc(O)c4-c4cc3ccc4O)[C@H](O)c3ccc(c(Cl)c3)Oc3cc2cc(c3O[C@@H]2O[C@H](CO)[C@@H](O)[C@H](O)[C@H]2O[C@H]2C[C@](C)(N)[C@H](O)[C@H](C)O2)Oc2ccc(cc2Cl)[C@H]1O
Solution: 2
